Reference for the values: patent US8426588B2

Biological target: integrin α4β7 (Homo sapiens, UniProt P13612+P26010)
Construct: lymphoma cell strain RPMI-8866 of human B cells, known to express integrin α4β7; endogenous in cells
Sequence (P13612 34-1032): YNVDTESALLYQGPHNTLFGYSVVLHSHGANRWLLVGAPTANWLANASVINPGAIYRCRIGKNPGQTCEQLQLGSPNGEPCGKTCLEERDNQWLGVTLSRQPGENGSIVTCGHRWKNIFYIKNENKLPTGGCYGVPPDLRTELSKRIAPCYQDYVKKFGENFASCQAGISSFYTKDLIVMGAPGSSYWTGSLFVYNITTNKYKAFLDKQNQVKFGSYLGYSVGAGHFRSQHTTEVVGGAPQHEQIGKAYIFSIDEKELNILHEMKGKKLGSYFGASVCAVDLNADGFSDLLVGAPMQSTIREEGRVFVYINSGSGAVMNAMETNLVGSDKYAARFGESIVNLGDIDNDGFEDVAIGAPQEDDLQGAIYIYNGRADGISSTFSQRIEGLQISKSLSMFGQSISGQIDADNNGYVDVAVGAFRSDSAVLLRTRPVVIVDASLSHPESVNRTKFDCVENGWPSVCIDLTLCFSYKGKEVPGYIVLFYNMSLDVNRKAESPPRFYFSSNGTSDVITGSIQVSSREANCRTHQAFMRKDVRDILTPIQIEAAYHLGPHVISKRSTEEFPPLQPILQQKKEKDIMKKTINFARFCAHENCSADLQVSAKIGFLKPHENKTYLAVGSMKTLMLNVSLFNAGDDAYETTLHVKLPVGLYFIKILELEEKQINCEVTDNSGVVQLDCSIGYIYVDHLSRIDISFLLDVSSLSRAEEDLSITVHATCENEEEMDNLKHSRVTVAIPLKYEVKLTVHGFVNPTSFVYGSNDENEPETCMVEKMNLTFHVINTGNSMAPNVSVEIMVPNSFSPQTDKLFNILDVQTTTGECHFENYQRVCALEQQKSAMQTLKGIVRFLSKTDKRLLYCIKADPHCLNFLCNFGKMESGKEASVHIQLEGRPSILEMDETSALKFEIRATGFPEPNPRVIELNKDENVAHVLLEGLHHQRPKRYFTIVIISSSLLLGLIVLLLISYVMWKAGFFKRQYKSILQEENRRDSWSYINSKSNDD
Sequence (P26010 20-798): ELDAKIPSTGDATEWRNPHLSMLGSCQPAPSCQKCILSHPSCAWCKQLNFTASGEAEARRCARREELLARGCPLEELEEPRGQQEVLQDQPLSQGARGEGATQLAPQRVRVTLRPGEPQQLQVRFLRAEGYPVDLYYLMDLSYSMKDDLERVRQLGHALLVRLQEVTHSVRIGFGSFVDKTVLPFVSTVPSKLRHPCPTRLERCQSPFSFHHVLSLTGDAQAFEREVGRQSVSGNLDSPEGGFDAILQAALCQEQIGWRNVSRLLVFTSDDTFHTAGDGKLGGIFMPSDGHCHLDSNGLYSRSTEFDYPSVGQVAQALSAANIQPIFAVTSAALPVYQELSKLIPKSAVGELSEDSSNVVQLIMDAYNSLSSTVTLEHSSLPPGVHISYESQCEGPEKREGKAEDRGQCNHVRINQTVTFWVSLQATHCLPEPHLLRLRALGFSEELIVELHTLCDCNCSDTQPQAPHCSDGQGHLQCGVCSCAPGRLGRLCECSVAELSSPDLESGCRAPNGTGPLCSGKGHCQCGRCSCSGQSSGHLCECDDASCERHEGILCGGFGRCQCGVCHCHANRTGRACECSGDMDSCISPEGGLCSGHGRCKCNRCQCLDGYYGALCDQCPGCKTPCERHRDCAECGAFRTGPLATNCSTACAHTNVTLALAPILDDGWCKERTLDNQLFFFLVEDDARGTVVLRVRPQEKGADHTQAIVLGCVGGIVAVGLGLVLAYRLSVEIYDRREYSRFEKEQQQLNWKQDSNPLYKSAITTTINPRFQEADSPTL
Test: VCAM antagonistic activity (VCAM-1/α4β7 binding assay), RPMI-8866 cells binding to VCAM-1
Conditions: RPMI-8866 human B lymphoma cells binding to recombinant human VCAM-1; binding buffer with 4 mM MnCl2
Class (by IC50) -- small value = under 7 nM, mid value = from 7 nM up to 40 nM, large value = 40 nM and over

Take a look at these entries with their results.
[[record]]
compound = "O=C(O)Cn1c(=O)n(-c2ccc(C[C@H](NC(=O)c3c(Cl)cccc3Cl)C(=O)O)cc2)c(=O)c2ccccc21 [Example 7]"
group = "mid value"

[[record]]
compound = "CCCCc1nc2ccccc2c(=O)n1-c1ccc(C[C@H](NC(=O)c2c(C)cccc2C)C(=O)O)cc1 [Example 41]"
group = "large value"

[[record]]
compound = "Cn1c(=S)n(-c2ccc(C[C@H](NC(=O)c3c(Cl)cccc3Cl)C(=O)O)cc2)c(=O)c2cc([N+](=O)[O-])ccc21 [Example 66]"
group = "small value"

[[record]]
compound = "CCc1nc2ccccc2c(=O)n1-c1ccc(C[C@H](NC(=O)c2c(Cl)cccc2Cl)C(=O)O)cc1 [Example 32]"
group = "large value"

[[record]]
compound = "Cn1c(=O)n(-c2ccc(C[C@H](NC(=O)c3c(Cl)cccc3Cl)C(=O)O)cc2)c(=O)c2cc([N+]3(C)CCCC3)ccc21 [Example 113]"
group = "small value"

[[record]]
compound = "Cc1cccc2[nH]c(=O)n(-c3ccc(C[C@H](NC(=O)c4c(Cl)cccc4Cl)C(=O)O)cc3)c(=O)c12 [Example 53]"
group = "large value"

[[record]]
compound = "Cn1c(=O)n(-c2ccc(C[C@H](NC(=O)[C@H]3CC[C@H](C(=O)O)CC3)C(=O)O)cc2)c(=O)c2ccccc21 [Example 13]"
group = "small value"

[[record]]
compound = "CCOc1nc2cc(F)ccc2c(=O)n1-c1ccc(C[C@H](NC(=O)c2c(Cl)cccc2Cl)C(=O)O)cc1 [Example 95]"
group = "small value"

[[record]]
compound = "Cc1cccc(C)c1C(=O)N[C@@H](Cc1ccc(-n2c(-c3ccccc3)nc3ccccc3c2=O)cc1)C(=O)O [Example 42]"
group = "large value"

[[record]]
compound = "CC(C)n1c(=O)n(-c2ccc(C[C@H](NC(=O)c3c(Cl)cccc3Cl)C(=O)O)cc2)c(=O)c2cc([N+](=O)[O-])ccc21 [Example 57]"
group = "mid value"


Enquiry: Class? Entry: CCOc1nc2ccccc2c(=O)n1-c1ccc(C[C@H](NC(=O)c2c(Cl)cccc2Cl)C(=O)O)cc1 [Example 37]
Return: mid value

Enquiry: Class? Entry: O=C(N[C@@H](Cc1ccc(-n2c(=O)c3cc([N+](=O)[O-])ccc3n(C3CCCC3)c2=O)cc1)C(=O)O)c1c(Cl)cccc1Cl [Example 60]
Return: mid value

====

Please go through the items and note down their IC50.
Target: integrin α4β1 (Homo sapiens, UniProt P05556+P13612)
Construct: cell strain Jurkat (ATCC TIB-152) of human T cells, known to express integrin α4β1; endogenous in cells
Sequence (P13612 34-1032): as the sequence (P13612 34-1032) above
Sequence (P05556 21-798): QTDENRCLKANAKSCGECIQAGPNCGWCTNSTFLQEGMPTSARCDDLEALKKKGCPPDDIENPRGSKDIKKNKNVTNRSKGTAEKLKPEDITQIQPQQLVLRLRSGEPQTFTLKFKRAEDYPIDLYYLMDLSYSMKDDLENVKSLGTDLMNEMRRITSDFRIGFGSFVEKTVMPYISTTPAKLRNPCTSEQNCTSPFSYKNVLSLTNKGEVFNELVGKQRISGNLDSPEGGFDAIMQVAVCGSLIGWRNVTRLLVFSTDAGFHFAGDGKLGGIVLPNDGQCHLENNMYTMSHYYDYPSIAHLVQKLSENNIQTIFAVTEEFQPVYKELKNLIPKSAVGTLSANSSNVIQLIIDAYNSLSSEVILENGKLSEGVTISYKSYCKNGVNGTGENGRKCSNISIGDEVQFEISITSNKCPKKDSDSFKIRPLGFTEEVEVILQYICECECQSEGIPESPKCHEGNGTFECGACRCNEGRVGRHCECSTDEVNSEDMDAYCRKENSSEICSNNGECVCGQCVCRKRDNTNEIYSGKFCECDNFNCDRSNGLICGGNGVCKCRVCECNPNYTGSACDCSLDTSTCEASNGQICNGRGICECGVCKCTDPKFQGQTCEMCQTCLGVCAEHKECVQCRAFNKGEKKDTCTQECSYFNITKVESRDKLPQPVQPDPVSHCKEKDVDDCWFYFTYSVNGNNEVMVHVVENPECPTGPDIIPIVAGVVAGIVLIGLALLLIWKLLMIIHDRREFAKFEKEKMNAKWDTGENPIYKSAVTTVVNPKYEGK
Assay: VCAM antagonist activity (VCAM-1/α4β1 binding assay), Jurkat cells binding to VCAM-1
Conditions: Jurkat human T cells binding to recombinant human VCAM-1; read-out: VCAM antagonistic activity (IC50) α4β1

// each compound listed below needs its IC50
1. CCOc1nc2ccccc2c(=O)n1-c1ccc(C[C@H](NC(=O)c2c(Cl)cccc2Cl)C(=O)O)cc1 [Example 37]
2. O=C(N[C@@H](Cc1ccc(-n2c(=O)c3ccccc3n(Cc3ccc(Cl)cc3)c2=O)cc1)C(=O)O)c1c(Cl)cccc1Cl [Example 117]
3. O=C(N[C@@H](Cc1ccc(-n2c(=O)[nH]c3cccc(Cl)c3c2=O)cc1)C(=O)O)c1c(Cl)cccc1Cl [Example 54]
4. COc1cccc2c(=O)n(-c3ccc(C[C@H](NC(=O)c4c(Cl)cccc4Cl)C(=O)O)cc3)c(=O)n(C)c12 [Example 180]
5. CCCCc1nc2ccccc2c(=O)n1-c1ccc(C[C@H](NC(=O)c2c(Cl)cccc2Cl)C(=O)O)cc1 [Example 34]

Return:
1. 200 nM
2. 480 nM
3. 71 nM
4. 86 nM
5. 2210 nM

====

Molecular target: integrin α4β1 (Homo sapiens, UniProt P05556+P13612)
Construct: cell strain Jurkat (ATCC TIB-152) of human T cells, known to express integrin α4β1; endogenous in cells
Test: VCAM antagonist activity (VCAM-1/α4β1 binding assay), Jurkat cells binding to VCAM-1
Conditions: Jurkat human T cells binding to recombinant human VCAM-1; read-out: VCAM antagonistic activity (IC50) α4β1
pIC50: −log10 of the molar value.
# if value of pIC50 reaches 7, tag true; if it stays below, tag false

Take a look at these entries with their results.
[[record]]
smiles_str = "CN1CCC(=O)N(c2ccc(C[C@H](NC(=O)c3c(Cl)cccc3Cl)C(=O)O)cc2)C1=O"
group = "false"

[[record]]
smiles_str = "O=C(N[C@@H](Cc1ccc(-n2c(=O)c3cc([N+](=O)[O-])ccc3n(Cc3ccccc3)c2=O)cc1)C(=O)O)c1c(Cl)cccc1Cl"
group = "false"

[[record]]
smiles_str = "Cn1c(=S)n(-c2ccc(C[C@H](NC(=O)c3c(Cl)cccc3Cl)C(=O)O)cc2)c(=O)c2cc([N+](=O)[O-])ccc21"
group = "false"

[[record]]
smiles_str = "CC(C)n1c(=O)n(-c2ccc(C[C@H](NC(=O)c3c(Cl)cccc3Cl)C(=O)O)cc2)c(=O)c2cc([N+](=O)[O-])ccc21"
group = "false"

[[record]]
smiles_str = "Cn1c(=O)n(-c2ccc(C[C@H](NC(=O)c3c(Cl)cccc3Cl)C(=O)O)cc2)c(=O)c2cc(N)ccc21"
group = "true"


Next, consider the following compound.
Enquiry: Given Cn1c(=O)n(-c2ccc(C[C@H](NC(=O)c3c(Cl)cccc3Cl)C(=O)O)cc2)c(=O)c2cc([N+]3(C)CCCC3)ccc21 , state whether its pIC50 is at least 7.
Return: true

====

Please go through the items and note down their pIC50.
Target: integrin α4β1 (Homo sapiens, UniProt P05556+P13612)
Construct: cell strain Jurkat (ATCC TIB-152) of human T cells, known to express integrin α4β1; endogenous in cells
Experiment: VCAM antagonist activity (VCAM-1/α4β1 binding assay), Jurkat cells binding to VCAM-1
Conditions: Jurkat human T cells binding to recombinant human VCAM-1; read-out: VCAM antagonistic activity (IC50) α4β1
Description: VCAM Antagonist Activity (VCAM-1/α4β1 Binding Assay) The capacity of a test substance antagonistic to the binding of cell strain Jurkat (ATCC TIB-152) of human T cells, known to express integrin α4β1, to VCAM-1 was determined. […] Jurkat cells were washed with Dulbecco modified Eagle medium (SIGMA, hereinafter referred to as “DMEM”) twice and then incubated in DMEM containing 10 μg/ml of Calcein-AM (Wako Pure Chemical Industries, Ltd.) at 37° C. in dark place for 30 minutes to label with fluorescence. […]
Numbers only, as −log10 of the molar value.

Some entries whose results are on file:
[[record]]
smiles_str = "Cn1c(=O)n(-c2ccc(C[C@H](NC(=O)c3c(Cl)cccc3Cl)C(=O)O)cc2)c(=O)c2ccc(C(F)(F)F)cc21"
numeric_value = 7.92

[[record]]
smiles_str = "Cn1c(=O)n(-c2ccc(C[C@H](NC(=O)C3CCCCC3)C(=O)O)cc2)c(=O)c2ccccc21"
numeric_value = 6.31

[[record]]
smiles_str = "O=C(N[C@@H](Cc1ccc(-n2nnc3c(Cl)ccc(Cl)c3c2=O)cc1)C(=O)O)c1c(Cl)cccc1Cl"
numeric_value = 7.14


// each molecule listed below needs its pIC50
1. COc1cc2c(=O)n(-c3ccc(C[C@H](NC(=O)c4c(Cl)cccc4Cl)C(=O)O)cc3)c(=O)n(C)c2cc1OC
2. Cn1c(=O)n(-c2ccc(C[C@H](NC(=O)c3c(Cl)cccc3Cl)C(=O)O)cc2)c(=O)c2c(Cl)cccc21
3. CC(=O)Nc1ccc2c(c1)c(=O)n(-c1ccc(C[C@H](NC(=O)c3c(Cl)cccc3Cl)C(=O)O)cc1)c(=O)n2C
4. O=C(N[C@@H](Cc1ccc(-n2c(=O)[nH]c3ccc(F)cc3c2=O)cc1)C(=O)O)c1c(Cl)cccc1Cl

Return:
7.96
7.59
7.80
5.88

====

Please go through the items and note down their pIC50.
Biological target: integrin α4β1 (Homo sapiens, UniProt P05556+P13612)
Construct: cell strain Jurkat (ATCC TIB-152) of human T cells, known to express integrin α4β1; endogenous in cells
Assay: VCAM antagonist activity (VCAM-1/α4β1 binding assay), Jurkat cells binding to VCAM-1
Settings: Jurkat human T cells binding to recombinant human VCAM-1; read-out: VCAM antagonistic activity (IC50) α4β1
One number for each entry, as −log10 of the molar value.

Some entries whose results are on file:
[[record]]
molecule = "Cn1c(=O)n(-c2ccc(C[C@H](NC(=O)c3c(Cl)cccc3Cl)C(=O)O)cc2)c(=O)c2cc(F)ccc21 [Example 189]"
numeric_value = 7.74

[[record]]
molecule = "COc1cccc(OC)c1C(=O)N[C@@H](Cc1ccc(-n2c(=O)c3ccccc3n(C)c2=O)cc1)C(=O)O [Example 9]"
numeric_value = 6.36

[[record]]
molecule = "O=C(N[C@@H](Cc1ccc(-n2c(-c3ccccc3)nc3ccccc3c2=O)cc1)C(=O)O)c1c(Cl)cccc1Cl [Example 35]"
numeric_value = 5.77


// each molecule listed below needs its pIC50
1. Cc1cccc2c(=O)n(-c3ccc(C[C@H](NC(=O)c4c(Cl)cccc4Cl)C(=O)O)cc3)c(=O)n(C)c12 [Example 186]
2. COc1ccc(C(=O)CSc2nc3ccccc3c(=O)n2-c2ccc(C[C@H](NC(=O)c3c(Cl)cccc3Cl)C(=O)O)cc2)cc1 [Example 23]
3. CCn1c(=O)n(-c2ccc(C[C@H](NC(=O)c3c(Cl)cccc3Cl)C(=O)O)cc2)c(=O)c2ccccc21 [Example 3]

Return:
7.23
5.14
7.18
